assay: PK in rat plasma; format: in vivo; conditions: rat; Table 36; PO plasma, 7.53 mg/kg; read-out: Vz/F
Recorded metric: Vd/F (L/kg)
Form entry: value (L/kg) — number only.

In: Please look up its Vd/F: `COCCN[C@H]1CS(=O)(=O)C[C@@H]1S(=O)(=O)c1ccc(Cl)cc1`
Out: 66.3

----------
assay: PK in mice plasma; type: in vivo; conditions: mouse; Table 39; PO plasma, 3.18 mg/kg
Recorded metric: Cmax
Please state the number and follow it with the unit.

In: Please look up its Cmax: `COCCN[C@H]1CS(=O)(=O)C[C@@H]1S(=O)(=O)c1ccc(Cl)cc1`
Out: 89.6 ng/mL

----------
Target: NR2F6 (Homo sapiens)
Construct: expressed in transfected cells; also transient transfection
Sequence (P10588 1-404): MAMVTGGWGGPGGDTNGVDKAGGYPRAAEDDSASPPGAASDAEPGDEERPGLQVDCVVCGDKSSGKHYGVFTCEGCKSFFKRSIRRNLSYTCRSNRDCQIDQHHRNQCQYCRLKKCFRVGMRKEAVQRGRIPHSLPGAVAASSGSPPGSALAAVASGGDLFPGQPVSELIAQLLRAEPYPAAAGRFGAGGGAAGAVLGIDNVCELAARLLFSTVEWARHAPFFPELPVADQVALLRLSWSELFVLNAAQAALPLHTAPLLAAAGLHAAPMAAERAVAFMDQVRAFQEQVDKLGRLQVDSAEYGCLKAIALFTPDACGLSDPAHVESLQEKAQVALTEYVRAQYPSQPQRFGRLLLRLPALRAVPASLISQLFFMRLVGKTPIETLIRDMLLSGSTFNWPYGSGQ
Assay: NR2F6 agonist screening, Firefly signal cmpd/DMSO
Type: cell-based
Conditions: 2 uM; F4
Recorded metric: Firefly F4, cmpd/DMSO (mean)
Returns: the value as a bare number; no unit string appended.

Past entries and their recorded results:
# Compound, Target or system, Firefly F4, cmpd/DMSO (mean)
rows = [
    ("CCCCN(C)[C@H]1CS(=O)(=O)C[C@@H]1S(=O)(=O)c1ccc(Cl)cc1", "NR2F6 (Homo sapiens)", 1.9),
    ("CC(C)CCN[C@H]1CS(=O)(=O)C[C@@H]1S(=O)(=O)c1cccs1", "NR2F6 (Homo sapiens)", 1.9),
    ("CC1CCN([C@H]2CS(=O)(=O)C[C@@H]2S(=O)(=O)c2ccc(Cl)cc2)CC1", "NR2F6 (Homo sapiens)", 2.3),
    ("O=S1(=O)C[C@H](N2CCCCC2)[C@@H](S(=O)(=O)c2cccs2)C1", "NR2F6 (Homo sapiens)", 2.4),
]

In: Please look up its Firefly F4, cmpd/DMSO (mean): `O=S1(=O)C[C@H](NC2CCCCC2)[C@@H](S(=O)(=O)c2ccccc2)C1`
Out: 1.1

In: Please look up its Firefly F4, cmpd/DMSO (mean): `O=S1(=O)C[C@H](NC2CCCCC2)[C@@H](S(=O)(=O)c2ccc(Cl)cc2)C1`
Out: 1.3

In: Please look up its Firefly F4, cmpd/DMSO (mean): `O=S1(=O)C[C@H](N2CCCCC2)[C@@H](S(=O)(=O)c2ccc(Cl)cc2)C1`
Out: 2.5

In: Please look up its Firefly F4, cmpd/DMSO (mean): CCC(C)N[C@H]1CS(=O)(=O)C[C@@H]1S(=O)(=O)c1ccc(C)cc1 (some centres unmarked)
Out: 1.6

----------
Molecular target: ERα (Homo sapiens, UniProt P03372)
Construct: expressed in transfected cells
Sequence (P03372 1-595): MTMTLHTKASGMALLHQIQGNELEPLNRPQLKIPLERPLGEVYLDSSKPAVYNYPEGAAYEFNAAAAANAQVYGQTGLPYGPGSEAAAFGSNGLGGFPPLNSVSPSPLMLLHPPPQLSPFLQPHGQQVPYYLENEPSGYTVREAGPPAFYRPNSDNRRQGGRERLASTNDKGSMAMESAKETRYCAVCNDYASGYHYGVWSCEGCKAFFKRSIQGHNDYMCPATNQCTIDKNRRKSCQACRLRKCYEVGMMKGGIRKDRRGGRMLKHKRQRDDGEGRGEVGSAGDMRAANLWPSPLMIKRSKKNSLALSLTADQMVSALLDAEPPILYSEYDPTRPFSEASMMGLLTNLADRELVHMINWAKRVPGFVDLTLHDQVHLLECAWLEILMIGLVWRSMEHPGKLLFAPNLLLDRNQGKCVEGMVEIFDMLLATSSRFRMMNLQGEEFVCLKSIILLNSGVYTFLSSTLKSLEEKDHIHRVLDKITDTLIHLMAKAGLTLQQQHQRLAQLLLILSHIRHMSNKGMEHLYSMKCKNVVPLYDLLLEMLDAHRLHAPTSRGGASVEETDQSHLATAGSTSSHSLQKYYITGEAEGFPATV
Experiment: Counterscreening, Firefly signal with ERα transient transfection (Firefly_ERa)
Type: cell-based
Settings: ERα transient transfection, 10 μM, repeat 1
I would appreciate it if you labelled entries met when Firefly_ERa, cmpd/DMSO repeat 1 is 2 or higher, otherwise not met.

Consider the worked cases shown below.
# Compound, Target or system, Assigned label
data = [
    ("Cc1ccn2cc(-c3ccc(F)cc3)cc2c1 [Compound 17]", "ERα (Homo sapiens, UniProt P03372)", "met"),
    ("CCn1c2c(c(=O)[nH]c1=O)C(c1ccc(C(C)C)cc1)C1=C(N2)c2ccccc2C1=O (stereo not drawn) [Compound 21]", "ERα (Homo sapiens, UniProt P03372)", "not met"),
    ("CNC(=O)c1ccc2c(c1)N=C(C)c1cc(C)ccc1S2 [Compound C9]", "ERα (Homo sapiens, UniProt P03372)", "met"),
    ("Cc1ccc(-c2nc3ccccc3c(=O)[nH]2)cc1 [Compound C3]", "ERα (Homo sapiens, UniProt P03372)", "not met"),
    ("CCc1cc(C(=O)Nc2ccn(Cc3ccc(C)cc3)n2)no1 [Compound C6]", "ERα (Homo sapiens, UniProt P03372)", "met"),
    ("O=C(Nc1cccc(O)c1)c1cc(-c2ccc(Cl)c(Cl)c2)on1 [Compound C5]", "ERα (Homo sapiens, UniProt P03372)", "not met"),
]

In: Quick check, Firefly_ERa, cmpd/DMSO repeat 1 >= 2? CCc1ccc(OCC(=O)Nc2cc(-c3nc4cc(C)ccc4o3)ccc2C)cc1 [Compound 24]
Out: not met

In: Quick check, Firefly_ERa, cmpd/DMSO repeat 1 >= 2? O=C(COc1ccccc1C(=O)N1CCOCC1)NCCc1ccccc1 [Compound 22]
Out: not met

In: Quick check, Firefly_ERa, cmpd/DMSO repeat 1 >= 2? COc1cc(Nc2c3c(nc4ccc(Cl)cc24)CCC3)cc(OC)c1OC [Compound C10]
Out: not met

In: Quick check, Firefly_ERa, cmpd/DMSO repeat 1 >= 2? CCc1cccc(Nc2cnn(-c3nc4ccccc4s3)c(=O)c2Cl)c1 [Compound C7]
Out: not met

In: Quick check, Firefly_ERa, cmpd/DMSO repeat 1 >= 2? COC(=O)c1ccc2oc(=O)c(S(=O)(=O)c3ccccc3)cc2c1 [Compound C11]
Out: not met

In: Quick check, Firefly_ERa, cmpd/DMSO repeat 1 >= 2? Nc1nonc1-c1noc(-c2cccc(COc3ccc(Cl)cc3Cl)c2)n1 [Compound 23]
Out: not met

----------
test system: Renilla; assay: Renilla signal in NR2F6 agonist screening, cmpd/DMSO; format: cell-based; settings: Renilla, 0.5 uM; read-out: Renilla F4, cmpd/DMSO (mean)
Catalogue of fold induction at 0.5 µM values

# Compound, Result
rows = [
    ("O=S1(=O)C[C@H](N2CCCC2)[C@@H](S(=O)(=O)c2cccs2)C1 [Compound D104]", 1.2),
    ("O=S1(=O)C[C@H](NCc2ccco2)[C@@H](S(=O)(=O)c2cccs2)C1 [Compound D135]", 0.9),
    ("CC(C)CCN[C@H]1CS(=O)(=O)C[C@@H]1S(=O)(=O)c1ccc(Cl)cc1 [Compound D131]", 1),
    ("CC(C)OCCCN[C@H]1CS(=O)(=O)C[C@@H]1S(=O)(=O)c1ccc(Cl)cc1 [Compound D138]", 0.8),
    ("O=S1(=O)C[C@H](NCCCc2ccccc2)[C@@H](S(=O)(=O)c2ccc(Cl)cc2)C1 [Compound D137]", 1.1),
]

In: Please look up its fold induction at 0.5 µM: O=S1(=O)C[C@H](NCC2CCCO2)[C@@H](S(=O)(=O)c2cccs2)C1 (stereo partly shown) [Compound D134]
Out: 1.1

In: Please look up its fold induction at 0.5 µM: COCCN[C@H]1CS(=O)(=O)C[C@@H]1S(=O)(=O)c1ccc(Cl)cc1 [Compound D136]
Out: 0.9

----------
target: NR2F6 (Homo sapiens, UniProt P10588); construct: expressed in transfected cells; also transient transfection; experiment: NR2F6 agonist screening, Firefly signal cmpd/DMSO; format: cell-based; conditions: F4; 10% FBS; 2 uM
Catalogue of Firefly, F4, 10% FBS, cmpd/DMSO (mean) values

# Compound, Result
data = [
    ("O=S1(=O)C[C@H](NCCCc2ccccc2)[C@@H](S(=O)(=O)c2ccc(Cl)cc2)C1", 1.4),
]

In: Please look up its Firefly, F4, 10% FBS, cmpd/DMSO (mean): `COc1ccc(CCN[C@H]2CS(=O)(=O)C[C@@H]2S(=O)(=O)c2ccc(Cl)cc2)cc1OC`
Out: 0.8

In: Please look up its Firefly, F4, 10% FBS, cmpd/DMSO (mean): `CCCCN[C@H]1CS(=O)(=O)C[C@@H]1S(=O)(=O)c1ccc(Cl)cc1`
Out: 1.1

In: Please look up its Firefly, F4, 10% FBS, cmpd/DMSO (mean): CCC(C)N[C@H]1CS(=O)(=O)C[C@@H]1S(=O)(=O)c1ccc(Cl)cc1 (stereo partly drawn)
Out: 1.4

In: Please look up its Firefly, F4, 10% FBS, cmpd/DMSO (mean): `O=S1(=O)C[C@H](N2CCCCC2)[C@@H](S(=O)(=O)c2ccc(Cl)cc2)C1`
Out: 2.0

In: Please look up its Firefly, F4, 10% FBS, cmpd/DMSO (mean): O=S1(=O)C[C@H](NCC2CCCO2)[C@@H](S(=O)(=O)c2cccs2)C1 (stereo partly drawn)
Out: 1.0

In: Please look up its Firefly, F4, 10% FBS, cmpd/DMSO (mean): Cc1cc(S(=O)(=O)[C@H]2CS(=O)(=O)C[C@@H]2NCC2CCCO2)ccc1F (stereo partly drawn)
Out: 1.3

Recorded values, source patent US11377442B2.
